# TARGET_SYSTEM: Tumor necrosis factor receptor superfamily member 10B (Homo sapiens) (UniProt O14763)
# Sequence (O14763 whole entry): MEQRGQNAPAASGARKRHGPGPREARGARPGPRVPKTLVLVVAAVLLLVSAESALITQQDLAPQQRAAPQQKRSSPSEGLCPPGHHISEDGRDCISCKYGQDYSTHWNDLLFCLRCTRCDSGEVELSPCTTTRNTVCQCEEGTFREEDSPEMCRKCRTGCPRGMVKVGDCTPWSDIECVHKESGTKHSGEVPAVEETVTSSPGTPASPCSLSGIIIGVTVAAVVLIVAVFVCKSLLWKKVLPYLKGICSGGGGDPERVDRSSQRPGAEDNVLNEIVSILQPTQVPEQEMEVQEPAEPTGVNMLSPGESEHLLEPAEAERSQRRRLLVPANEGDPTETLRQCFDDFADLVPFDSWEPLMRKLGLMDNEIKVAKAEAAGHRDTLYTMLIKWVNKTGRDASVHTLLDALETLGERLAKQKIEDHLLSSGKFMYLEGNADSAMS
# ASSAY_PROTOCOL: Increase in DR5 promoter activity in SacI gene expressing human DLD1 cells at 17.5 to 70 uM after 24 hrs by luciferase reporter gene assay relative to control
# Type: cell-based
# CONDITION_INFO: DLD-1
REPORTED_METRIC: fold change (FC)

- COc1c(O)cc(-c2oc3cc(O)cc(O)c3c(=O)c2OC)cc1O: 2
- COc1cc(-c2oc3cc(O)cc(O)c3c(=O)c2OC)cc(O)c1OC: 2.2
- C=C(C)[C@@H](O)CC[C@@H](C)[C@H]1CC[C@@]2(C)[C@@H]3[C@@H](OC(C)=O)C[C@H]4[C@](C)(C(=O)O)[C@@H](O)CC[C@@]45C[C@@]35CC[C@]12C: 1.7
- COc1ccc(-c2oc3cc(O)cc(O)c3c(=O)c2OC)cc1O: 6.7
- COC(C)(C)/C=C/C[C@@H](C)[C@H]1CC[C@@]2(C)[C@@H]3[C@@H](O)C[C@H]4C(C)(C)C(=O)CC[C@@]45C[C@@]35CC[C@]12C: 2.5

Provenance of the data: ChEMBL document CHEMBL1687869
